# target-or-system: T1, EsCas13d, nuclease-dead (Eubacterium siraeum, UniProt B0MS50, R295A;H300A;R849A;H854A)
# T1 sequence: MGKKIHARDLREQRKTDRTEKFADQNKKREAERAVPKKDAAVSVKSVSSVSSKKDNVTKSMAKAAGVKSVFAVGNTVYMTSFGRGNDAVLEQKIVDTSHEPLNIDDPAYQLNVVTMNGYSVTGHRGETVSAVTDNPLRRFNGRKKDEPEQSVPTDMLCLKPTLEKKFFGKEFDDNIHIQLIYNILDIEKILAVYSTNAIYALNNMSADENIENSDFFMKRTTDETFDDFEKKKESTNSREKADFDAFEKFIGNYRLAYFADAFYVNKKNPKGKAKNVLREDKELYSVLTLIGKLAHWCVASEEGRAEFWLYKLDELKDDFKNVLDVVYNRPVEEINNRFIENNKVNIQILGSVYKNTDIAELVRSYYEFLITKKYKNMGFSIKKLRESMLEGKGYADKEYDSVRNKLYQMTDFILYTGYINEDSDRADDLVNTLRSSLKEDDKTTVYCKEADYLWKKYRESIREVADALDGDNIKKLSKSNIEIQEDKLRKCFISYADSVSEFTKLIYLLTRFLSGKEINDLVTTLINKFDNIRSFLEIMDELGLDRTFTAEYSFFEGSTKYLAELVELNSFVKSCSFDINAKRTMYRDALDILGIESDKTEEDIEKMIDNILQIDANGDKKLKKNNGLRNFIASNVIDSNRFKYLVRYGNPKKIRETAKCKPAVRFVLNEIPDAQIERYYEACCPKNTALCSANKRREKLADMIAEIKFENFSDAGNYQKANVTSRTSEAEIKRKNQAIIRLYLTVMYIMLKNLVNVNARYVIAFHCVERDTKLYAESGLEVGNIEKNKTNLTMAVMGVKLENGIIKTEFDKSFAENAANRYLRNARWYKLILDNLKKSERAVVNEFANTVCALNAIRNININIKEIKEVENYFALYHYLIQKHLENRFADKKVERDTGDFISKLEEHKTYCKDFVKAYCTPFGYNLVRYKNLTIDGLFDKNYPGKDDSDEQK
# assay-name: crRNA (strand 1, pre-loaded); Mg2+; 40 mM Tris-HCl pH 7.5, 150 mM NaCl, 6 mM MgCl2, 1 mM DTT, 0.1% Tween-20, 0.2 mg/ml BSA; 25 C; 10 min per concentration, then washed
# condition-notes: tags: His6-TwinStrep-SUMO cleaved; N-terminal SNAP kept (SNAP-Surface 488); label: 3' end held by stalled T7 RNA polymerase
property-measured: Kd

Please give Kd for each item listed below.
1. target 1 MT 5'PFS GUU 3'PFS UCA (mixed) RNA 1: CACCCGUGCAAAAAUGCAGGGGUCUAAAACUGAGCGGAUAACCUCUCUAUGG RNA 2: GGGAAUGGAUCCACAUCUACGAAUUCGUUCCAUAGAGAGGUUAUCCGCUCAUCAAGAUCGGAAGAGCACACGU
2. target 1 insC 3' of 10,insA 3' of 4 (mixed) RNA 1: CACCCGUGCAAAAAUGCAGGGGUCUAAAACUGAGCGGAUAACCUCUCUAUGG RNA 2: GGGAAUGGAUCCACAUCUACGAAUUCGUACCAUAGAGAGGUUCAUCCGCAUCACCGAGAUCGGAAGAGCACACGU

15.6 nM
15.5 nM

Please give Kd for each item listed below.
1. target 2 MT 5'PFS GAU 3'PFS CCG (mixed) RNA 1: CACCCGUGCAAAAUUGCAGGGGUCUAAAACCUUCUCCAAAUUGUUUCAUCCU RNA 2: GGGAAUGGAUCCACAUCUACGAAUUCGAUAGGAUGAAACAAUUUGGAGAAGCCGAGAUCGGAAGAGCACACGU
2. target 1 insG 3' of 2,insC 3' of 1 (mixed) RNA 1: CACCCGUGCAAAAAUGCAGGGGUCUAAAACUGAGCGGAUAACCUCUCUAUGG RNA 2: GGGAAUGGAUCCACAUCUACGAAUUCGUACCAUAGAGAGGUUAUCCGCUCGACCCGAGAUCGGAAGAGCACACGU

1: 14.2 nM; 2: 10.4 nM

From: paper PMC10786891
